Molecular target: Mitogen-activated protein kinase 1 (Homo sapiens)
Conditions: Compound concentration 20.0 uM, Protein concentration 2.0 uM, Result type QC Liability
Description: Thermal Shift Assay. Domain: start/stop: M1-S360
We begin with a simple list: items and their reported ΔTm.
Express the result in °C but write the number alone.

Reference set (7 entries):
# mol.smiles, ΔTm (°C)
records = [
    ("C[C@@H]1CC(=O)N(C2CC2)N=C1c1ccc(NC(=O)N2Cc3ccncc3C2)cc1", 0.29),
    ("CC(=O)N1CCC(c2ccc(C(=O)NC3=NCCN3)cc2C(F)(F)F)CC1", 0.1),
    ("Cc1cc(OCCC(C)(C)O)cc(C)c1-c1ccc(F)c2c1CC[C@H]2Oc1ccc2c(c1)OC[C@H]2CC(=O)O", -8.53),
    ("Cc1csc(S(=O)(=O)N(CC(C)C)c2cc3c(cc2OCc2ccc(C(=O)O)cc2)CCC3)n1", -0.27),
    ("Cc1ncsc1-c1ccc(CNC(=O)[C@@H]2C[C@@H](O)CN2C(=O)[C@@H](NC(=O)CCCCNC(=O)c2ccc(-c3ccc(N4CCN(C)CC4)c(NC(=O)c4c[nH]c(=O)cc4C(F)(F)F)c3)cc2)C(C)(C)C)cc1", -2.62),
    ("Cc1nn(-c2ccccc2)c(Nc2ccccc2C(=O)O)c1-c1cc2nccnc2c(F)c1F", 0.47),
    ("Cc1cn(CCN2CCN(c3ccccc3-c3cc(C#N)cc(C(=O)NCCCN4CCCC4)c3)CC2)c2ccccc12", 0.52),
]

Requested field: ΔTm. Item: CC(C)(C)C(=O)NCc1ccc(Cl)c(C(=O)Nc2ncc[nH]2)c1
-0.01
